From: PubChem BioAssay (NCI)

TGI: recorded values
Test system: NCI-H23 lung
Experiment: NCI tumour cell line growth inhibition, 48 h
value.type: TGI

>  <compound>
CC(C)C(C(=O)O)N(CC1(O)OCC(O)C(O)C1O)N=O (stereo not drawn)

>  <test.value>
> 100 µM

$$$$
>  <compound>
N#CC1=C(N)Oc2cc3c(cc2C1c1cccs1)OCO3 (stereo not drawn)

>  <test.value>
> 100 µM

$$$$
>  <compound>
C=C1C(=O)O[C@H]2[C@H]1CC/C(COC(=O)C(=O)c1c[nH]c3ccccc13)=C\CC[C@@]1(C)O[C@@H]21

>  <test.value>
16 µM

$$$$
>  <compound>
O=C(c1ccccc1)c1ccc(C(c2c(O)c3ccccc3oc2=O)c2c(O)c3ccccc3oc2=O)cc1

>  <test.value>
49 µM

$$$$
>  <compound>
CC(O)C1OC(O)C2OC(C)(C)OC12 (stereo not drawn)

>  <test.value>
> 100 µM

$$$$
>  <compound>
O=[N+]([O-])c1ccc(N2CCN(Cc3ccccc3)CC2)c2c1no[n+]2[O-]

>  <test.value>
5.68 µM

$$$$
>  <compound>
C[C@]12CC[C@@H]3c4ccc(O)cc4CC[C@H]3[C@@H]1C/C(=C\c1ccc([N+](=O)[O-])cc1)C2=O

>  <test.value>
> 100 µM

$$$$
>  <compound>
Cc1cc2nc3n[nH]c(N)c3nc2cc1C

>  <test.value>
> 100 µM

$$$$
